# System: K4 kissing-loop RNA reporter;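 also: bound reporter read as fluorescence of individual clusters on recovered sequencing chips by microscopy, with normalized cluster intensities fitted with a binding model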
# Protocol: apparent KD of K4 kissing-loop reporter; higher = weaker reporter binding
# Protocol conditions: Eterna round: R107; input ligand: tryptophan 2.4 mM
Would you kindly list apparent KD of K4 kissing-loop reporter for each of these sequences?
Numbers only, in nM.

Here is how some sequences turned out for apparent KD of K4 kissing-loop reporter.
Sequence code	apparent KD of K4 kissing-loop reporter [nM]
GGCAUCCAUGGACAUAGUGAUGUUAUGUGCCGAGGACCGGUACGGCCGCCACUCGACCAUGGAUGCCGCAAUCGGAAACGAUUGC	115
AGUACAGACACGGCCGCCACUCAGAAGAAGAUAGUAGUGAUGUUACUGAUGAUGAGAAUAAUAAAGAGGACCGGGUGUUGUGCAA [#09 K4 Tryptophan B Same State]	71.5
AAAACCAAAAGCGAUACCAGCGCGGAGUGAUGUUCCGAGGAUCGGAGUGAUGUUCCGAAGCGCCCUUGGCAGCGCAAAAGCGCAA [Exclusion Theophylline B GF 7]	164
GGGUCUGUCGGAAGGAGCGCACUAUGGAGUGAUGUUCCAUGACCGCACAGCUUGCGGUCAGUGCAGGUAGGUCGCCGAUAGCUUU [Usquso]	164
GGAUAGGAUAGAGGAUAUGGUUUAUGCAAGAAUAACUUAUCGUGUAAAUCCAUAGGGAGUGAUGUUCCAGAAGGCUGUCCUAUCG [MatMod 12 - Jieux - Exclusion - FMN B]	173
UGGAGUUGACGAAAAGUCAACUCCCGAGAAGGAGCGGACGAAAGUCCAGGUAGGUCGCUCACUACCAGUGAUGUUGGUACUUAAA	138
UUUAUUAAGACGGCCGCCACUGAAUUAGAGUGAUGUUCUAUAAUUUCUAAAUUAAAUUUAUUCAACAGGACCGGGUCAAUUAUUA [JR_SSTryptoB_Sub011]	314
GAGCCAACCGUCGAUACCAGCCGCACGUCAUUCACUCAAUGCUGAGGAGCCAGUGAUGUUGGCCCUUGGCAGCGAAGCAACGAUC [theeternabot_exclusion_KL_Theo_B_43]	93.2

The following sequences each have a reported value; give each one's apparent KD of K4 kissing-loop reporter.
1. GUGCGGUGGAGGUUACCGCUACUCUGAGAAGGAGCGCAGAUGACUGCAGGUAGGUCGCUUAGAGCUUGCAGUGAUGUUGCAAGUU [Anquatbiat]
2. UGUCAUUGGUCGGCCGCCACUUCAUAAAGAGUGAUGUUCUAAAAGACGGAUCGAAAGAUCUGUCGAAGGACCGGGAUCGAUGACU [FiskerMod 11 - Jieux - Same State - Tryptophan B]
3. GCCGUAGAUUGAAGGAGCGUGGACCUAUCGCUUGAACAGUGAUGUUGUUUAUCUAGGAAGCCGCAGGUAGGUCGCAAUCUACGGC
4. UAGUCCUAGUGAUCCUUAUCAAGUGGUGGGCGAGGACCGGUACGGCCGCCACUCGAAUAUGCAGUGAUGUUGUAAUCCGGAUAAU [Exclusion - Tryptophan A (Freestyle 10)]
5. GCAAAACUCAGUGAUGUUGAGAUAUCGGAAGGAGCGCGUGAAAACGCAGGUAGGUCGCCGAUUCAAUGAGUUUCUCGUUGUUUGC [Arginine A K4 20]
6. UUCUGCAUCUCGGCCGCCACUCACUAGUGAUGUUAGUAAGGAGCGACUAGACAUGUCCCGUUAUUGAGGACCGGGAGAGGCUCUU [#13 K4 Tryptophan B Exclusion]
7. AGGAUCACGUCAGUGAUGUUGACGAGAGAUACCAGAGACGAAAGUCUCCCUUGGCAGCUCAUCGUGAUCCGUGACAAAGGUCACA [Omei KL hio A SS C v4]

Marked response:
[177, 275, 382, 417, 288, 140, 297]
